Biological target: PLK4 (h) (Homo sapiens, UniProt O00444)
Sequence (O00444 whole entry): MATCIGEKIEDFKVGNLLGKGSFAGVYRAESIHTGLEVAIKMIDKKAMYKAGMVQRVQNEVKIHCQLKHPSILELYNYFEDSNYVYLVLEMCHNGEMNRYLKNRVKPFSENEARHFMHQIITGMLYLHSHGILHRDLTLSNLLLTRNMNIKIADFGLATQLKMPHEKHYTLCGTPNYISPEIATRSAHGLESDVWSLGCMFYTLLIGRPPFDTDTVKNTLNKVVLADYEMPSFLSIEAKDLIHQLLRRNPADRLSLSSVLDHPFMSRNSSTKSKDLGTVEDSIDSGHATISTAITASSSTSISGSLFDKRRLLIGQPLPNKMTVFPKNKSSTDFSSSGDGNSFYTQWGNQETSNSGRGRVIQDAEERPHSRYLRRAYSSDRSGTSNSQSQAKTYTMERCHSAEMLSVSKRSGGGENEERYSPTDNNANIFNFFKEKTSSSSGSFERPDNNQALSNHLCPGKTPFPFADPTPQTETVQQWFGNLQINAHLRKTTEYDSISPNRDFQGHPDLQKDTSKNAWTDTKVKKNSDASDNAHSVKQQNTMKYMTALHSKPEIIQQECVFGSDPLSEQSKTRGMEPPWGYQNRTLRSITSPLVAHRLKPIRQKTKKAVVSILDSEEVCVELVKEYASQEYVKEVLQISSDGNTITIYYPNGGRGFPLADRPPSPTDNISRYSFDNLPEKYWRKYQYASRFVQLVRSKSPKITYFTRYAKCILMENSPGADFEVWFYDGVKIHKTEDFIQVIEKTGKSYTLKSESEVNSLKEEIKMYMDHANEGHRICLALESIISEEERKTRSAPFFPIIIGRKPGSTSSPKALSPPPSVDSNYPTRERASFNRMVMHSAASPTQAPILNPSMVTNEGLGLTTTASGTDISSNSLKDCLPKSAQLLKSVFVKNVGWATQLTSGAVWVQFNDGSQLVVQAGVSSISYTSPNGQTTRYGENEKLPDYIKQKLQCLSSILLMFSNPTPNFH
Assay: PLK-4 human kinase assay (SPA)
Format: biochemical
Conditions: read-out: PLK4 pIC50 (converted)
Method: The in vitro inhibition of a panel of kinases was assessed using either the scintillation proximity assay (SPA) as described by Cook, N. D. et al., Advances in Experimental Medicine and Biology (1991), 36; p. 525-528; or the Fluorescence Resonance Energy Transfer (FRET) technology as described by Rodems, S. M. et al., Assay Drug Develop. Technol. (2002), 1; p. 9-19. […]
Parameter: IC50. Scope: all listed entries.
Experimental Endpoint: IC50

1) CN1CCNc2ncnc3c2/C(=C/Nc2ccc(N4CCOCC4)c(c2)OCCCC1=O)C(=O)N3
> 10 µM
2) O=C1Nc2ncnc3c2C1=CNc1ccc(Cl)c(c1)OCCCCC(=O)N1CCN3CC1 (mixture of isomers)
> 10 µM
3) CC(C)N1CCCCCCC(=O)N2CCN(CC2)c2ncnc3c2/C(=C/Nc2ccc(F)c(c2)C1)C(=O)N3
> 10 µM

---

Target: PLK4 (h) (Homo sapiens, UniProt O00444)
Assay: PLK-4 human kinase assay (SPA)
Assay type: biochemical
Parameter: PLK4 pIC50. Scope: all listed entries.
Experimental Endpoint: PLK4 pIC50

1. CN1CCCNc2ncnc3c2C(=CNc2cccc(c2)OCCCCC1=O)C(=O)N3 (mixture of isomers) [Compound 70]
6.75
2. CN1CCCNc2ncnc3c2C(=CNc2ccc(N4CCOCC4)c(c2)OCCCCCC1=O)C(=O)N3 (mixture of isomers) [Compound 120]
6.67
3. COc1ccc2cc1OCCCCCC(=O)NCCN(C)c1ncnc3c1C(=CN2)C(=O)N3 (mixture of isomers) [Compound 46]
5.18
4. COc1cc2cc(c1OC)OCCCC(=O)NCCCNc1ncnc3c1C(=CN2)C(=O)N3 (mixture of isomers) [Compound 147]
6.95
5. COc1cc2cc(c1OC)OCCCCC(=O)N(C)CCNc1ncnc3c1C(=CN2)C(=O)N3 (mixture of isomers) [Compound 129]
5.71
6. COc1ccc2cc1OCCCCC(=O)N(C)CCCNc1ncnc3c1C(=CN2)C(=O)N3 (mixture of isomers) [Compound 62]
6.9
7. CN1CCCNc2ncnc3c2C(=CNc2ccc(Cl)c(c2)OCCCC1=O)C(=O)N3 (mixture of isomers) [Compound 63]
6.52
8. COc1ccc2cc1OCCCC(=O)N(C1CCCCC1)CCCNc1ncnc3c1C(=CN2)C(=O)N3 (mixture of isomers) [Compound 145]
6.61
9. CN1CCN(c2ccc3cc2OCCCC(=O)N(C)CCCNc2ncnc4c2C(=CN3)C(=O)N4)CC1 (mixture of isomers) [Compound 133]
7.21
10. CN1CCCN(C)c2ncnc3c2C(=CNc2ccc(Cl)c(c2)OCCCC1=O)C(=O)N3 (mixture of isomers) [Compound 86]
5.9
11. CN1CCCNc2ncnc3c2C(=CNc2cccc(c2)OCCCCCC1=O)C(=O)N3 (mixture of isomers) [Compound 71]
6.7
12. CN1CCN(c2ccc3cc2OCCCCCC(=O)N(C)CCCNc2ncnc4c2C(=CN3)C(=O)N4)CC1 (mixture of isomers) [Compound 138]
6.74
13. CN1CCN(c2ccc3cc2OCCCCC(=O)N(C)CCNc2ncnc4c2C(=CN3)C(=O)N4)CC1 (mixture of isomers) [Compound 135]
6.67
14. O=C1CCCOc2cccc(c2)NC=C2C(=O)Nc3ncnc(c32)NCCCN1 (mixture of isomers) [Compound 142]
7.3
15. COc1ccc2cc1OCCCCC(=O)NCCN(C)c1ncnc3c1C(=CN2)C(=O)N3 (mixture of isomers) [Compound 44]
5.22
16. CN1CCNc2ncnc3c2C(=CNc2cccc(c2)OCCCC1=O)C(=O)N3 (mixture of isomers) [Compound 58]
6.75
17. CN1CCCCCC(=O)N(C)CCCNc2ncnc3c2C(=CNc2ccc(N4CCOCC4)c(c2)C1)C(=O)N3 (mixture of isomers) [Compound 139]
6.64
18. CN1CCCN(C)c2ncnc3c2C(=CNc2cccc(c2)OCCCC1=O)C(=O)N3 (mixture of isomers) [Compound 88]
5.85
19. COc1ccc2cc1OCCCC(=O)N(C(C)C)CCCCN(C)c1ncnc3c1C(=CN2)C(=O)N3 (mixture of isomers) [Compound 33]
5.27
20. CN1CCCNc2ncnc3c2C(=CNc2cccc(c2)OCCCC1=O)C(=O)N3 (mixture of isomers) [Compound 35]
7.01
21. CN1CCCNc2ncnc3c2C(=CNc2ccc(N4CCOCC4)c(c2)OCCCCC1=O)C(=O)N3 (mixture of isomers) [Compound 121]
7.22
